TARGET OR TEST SYSTEM: Potassium voltage-gated channel subfamily KQT member 2 (Rattus norvegicus) (UniProt O88943)
Sequence (O88943 whole entry, looked up): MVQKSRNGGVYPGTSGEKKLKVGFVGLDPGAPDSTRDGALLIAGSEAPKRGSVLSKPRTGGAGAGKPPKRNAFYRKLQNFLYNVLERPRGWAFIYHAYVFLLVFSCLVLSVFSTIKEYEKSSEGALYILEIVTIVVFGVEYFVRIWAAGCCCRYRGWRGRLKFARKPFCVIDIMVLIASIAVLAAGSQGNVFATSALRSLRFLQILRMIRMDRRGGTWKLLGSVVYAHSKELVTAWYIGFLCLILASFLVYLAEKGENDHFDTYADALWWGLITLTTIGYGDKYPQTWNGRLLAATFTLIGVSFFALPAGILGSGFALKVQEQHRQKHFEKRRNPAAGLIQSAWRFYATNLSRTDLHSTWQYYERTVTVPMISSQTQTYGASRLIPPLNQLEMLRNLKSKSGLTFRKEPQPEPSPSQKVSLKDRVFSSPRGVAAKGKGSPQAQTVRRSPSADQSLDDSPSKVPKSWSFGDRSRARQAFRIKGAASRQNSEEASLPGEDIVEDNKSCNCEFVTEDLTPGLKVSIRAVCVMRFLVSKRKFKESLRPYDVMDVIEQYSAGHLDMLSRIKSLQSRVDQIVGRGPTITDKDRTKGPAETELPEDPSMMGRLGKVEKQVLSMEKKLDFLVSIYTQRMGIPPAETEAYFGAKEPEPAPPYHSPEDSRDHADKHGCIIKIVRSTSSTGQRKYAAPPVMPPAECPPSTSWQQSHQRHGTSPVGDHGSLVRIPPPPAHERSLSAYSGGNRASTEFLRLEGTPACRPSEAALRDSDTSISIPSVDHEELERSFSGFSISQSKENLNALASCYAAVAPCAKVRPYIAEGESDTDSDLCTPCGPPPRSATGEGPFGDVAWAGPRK
PROTOCOL DESCRIPTION: KCNQ2 channel current inhibitors, SAR follow-up, orthogonal assay for KCNQ2 inhibitor project, automated electrophysiology, CHO cells, CRC2 (AID 588426)
MEASUREMENT PARAMETERS: KCNQ2-CHO automated patch clamp current
pIC50: −log10 of the molar value.
# pIC50 >= 6 gives 1, anything below gives -1

Look over these answered cases.
{"MOLECULE": "COc1ccc(CC(=O)Nc2ccccc2N2CCCC2)cc1", "CLASS": -1}
{"MOLECULE": "O=C(Nc1ccccc1N1CCCC1)[C@@H]1CCCc2ccccc21", "CLASS": -1}
{"MOLECULE": "O=C(Cc1cccc(Cl)c1)Nc1ccccc1N1CCCC1", "CLASS": 1}
{"MOLECULE": "O=C(Cc1cccc(F)c1)Nc1ccccc1N1CCCC1", "CLASS": 1}
{"MOLECULE": "CCCC(C(=O)Nc1ccccc1N1CCCC1)c1ccccc1 (configuration not stated)", "CLASS": 1}
{"MOLECULE": "CCC(C(=O)Nc1ccccc1N1CCCC1)c1ccc(F)c(F)c1 (configuration not stated)", "CLASS": 1}
{"MOLECULE": "CCC(C(=O)Nc1ccccc1N1CCCC1)c1cccc(OC)c1 (configuration not stated)", "CLASS": 1}
{"MOLECULE": "O=C(Cc1cccc(C(F)(F)F)c1)Nc1ccccc1N1CCCC1", "CLASS": 1}
{"MOLECULE": "O=C(Nc1ccccc1N1CCCC1)C1CCc2ccccc21 (configuration not stated)", "CLASS": 1}

Now consider the entry below.
(Q) Confirm if pIC50 reported for the molecule COc1cccc(CC(=O)Nc2ccccc2N2CCCC2)c1 is 6 or above.
(A) -1

// data source = PubChem BioAssay AID588426
